Data provenance: PubChem BioAssay (NCI)

- System: HS 578T breast
- assay name: NCI-60 one-dose screen, 48 h
- measurement setup: 10 µM
Compounds without any hit were thinned out: in the full panel of roughly 83,000, 20% have a hit. Calls of active or inactive are those of the source. The calls were made as follows: active = growth percent below 10; inactive = the rest.
Possible outcomes: 1 (yes) for active, 0 (no) for inactive

{"compound": "N=C(N)c1ccc(-c2ccc(-c3cccs3)s2)nc1", "label": "0 (no)"}
{"compound": "C/C(=N\\NC(=O)c1sc(=S)n(C)c1N)c1cc2ccccc2o1", "label": "0 (no)"}
{"compound": "COc1ccc(NC(=O)c2sc3nc4c(cc3c2N)C(O)CCC4)cc1 (centres undefined)", "label": "0 (no)"}
{"compound": "CCCCCCOc1ccc(/C=C/C(=O)c2ccc(B(O)O)cc2)cc1", "label": "0 (no)"}
{"compound": "COc1cccc2c1C(=O)c1c(O)c3c(c(O)c1C2=O)C[C@@](O)(C(=O)COC(=O)c1ccccc1)C[C@@H]3OC1CC(N)C(O)C(C)O1 (some centres undefined)", "label": "1 (yes)"}
{"compound": "Cc1ccc2oc(=O)cc(/C(=C3/C=CC=N3)c3ccc[nH]3)c2c1", "label": "0 (no)"}
{"compound": "Cc1ccc2nc3[nH]c(=O)[nH]c(=O)c3c(N)c2c1", "label": "0 (no)"}
{"compound": "CCc1nn2c(-c3cc(OC)c(OC)c(OC)c3)c(-c3cc(OC)c(OC)c(OC)c3)nc2s1", "label": "0 (no)"}
{"compound": "CC(=O)Nc1ccc2c(c1)C(N1CC3CCC(CC3)C1)c1ccccc1-2 (centres undefined)", "label": "0 (no)"}
{"compound": "COC(=O)c1ccc(Cn2ccc(=O)[nH]c2=O)cc1", "label": "0 (no)"}
{"compound": "COc1ccc(C(=O)/C=C/c2cc(-c3ccc4c(c3)OCO4)n[nH]2)cc1OC", "label": "0 (no)"}
{"compound": "CC(=O)Nc1ccc(Sc2ccc(NC(C)=O)cc2)cc1", "label": "0 (no)"}
{"compound": "O=C(Nc1cccc(C(F)(F)F)c1)C(Cl)Cl", "label": "0 (no)"}
{"compound": "CN1/C(=C\\C(I)C(I)C2=[N+](C)c3ccccc3C2(C)C)C(C)(C)c2ccccc21 (centres undefined)", "label": "0 (no)"}
{"compound": "COc1ccc(Cn2cc3c(c2-c2ccccc2)CC(C)(C)c2cnoc2-3)cc1", "label": "1 (yes)"}
{"compound": "CCOC(=O)c1sc(NC(=O)c2cc(OC)c(OC)c(OC)c2)nc1C", "label": "0 (no)"}
{"compound": "Cc1ccc([P+](Cc2ccccc2)(c2ccccc2)c2ccccc2)cc1", "label": "0 (no)"}
{"compound": "CCC(OC(=O)CC(C)C)c1ccccc1 (centres undefined)", "label": "0 (no)"}
{"compound": "Cn1c(N)c(N=Cc2ccccc2)c(=O)n(C)c1=O", "label": "0 (no)"}
{"compound": "C=CCn1ccc(=O)nc1SC", "label": "0 (no)"}
{"compound": "COc1ccc(-c2nsc3c2NC(=O)CC3c2ccc(Cl)cc2)cc1 (centres undefined)", "label": "0 (no)"}
{"compound": "Cc1cc(C)c(C(=O)OC(C)CNC2CCCCC2)c(C)c1 (centres undefined)", "label": "0 (no)"}
{"compound": "CCCCCCCCCCSC(=N)N (tested in a mixture with another compound)", "label": "0 (no)"}
{"compound": "O=[N+]([O-])c1ccc(Br)o1", "label": "0 (no)"}
{"compound": "CCCCc1ccc(NC(=O)N(CCCl)N=O)cc1", "label": "0 (no)"}
{"compound": "CCCCCCCCCCCCCCCC(=O)N1CCN(C)CC1", "label": "0 (no)"}
{"compound": "Cc1ccc(-c2cc(C(=O)Nc3ccc(S(=O)(=O)N4CCCCC4)cc3)[nH]n2)c(O)c1", "label": "0 (no)"}
{"compound": "O=S(=O)(O)C1(O)CCCCC1", "label": "0 (no)"}
{"compound": "CCOC(=O)c1cc2c(n1Cc1cc(OC)cc(OC)c1)-c1oncc1CC2", "label": "1 (yes)"}
{"compound": "C[N+]1(CC2CO2)CCCCCC1 (centres undefined)", "label": "0 (no)"}
{"compound": "C=CCNC(=S)NN", "label": "0 (no)"}
{"compound": "Fc1cc(-c2ncc(-c3cc(F)c(F)c(F)c3)c(NC3CCCCCC3)n2)cc(F)c1F", "label": "0 (no)"}
{"compound": "CC(C)OP(=O)(O)c1ncc(-c2ccc(C(F)(F)F)cc2)c(NC2CCCCCC2)n1", "label": "0 (no)"}
{"compound": "CCc1nn2c(-c3ccccc3)c(-c3cc(OC)c(OC)c(OC)c3)nc2s1", "label": "0 (no)"}
{"compound": "CCOC(=O)CNC(=O)Nc1ccc(Oc2ccc(NC(=O)NCC(=O)OCC)cc2)cc1", "label": "0 (no)"}
{"compound": "O=C(NCCCl)c1cc(Cl)cc(Cl)c1", "label": "0 (no)"}
{"compound": "COc1ccc(/C=C2\\CCC3C(CCCC34OCCO4)C2=O)cc1 (centres undefined)", "label": "0 (no)"}
{"compound": "Cc1nnc2c3nnc(-c4ccc(Cl)cc4)n3c3ccccc3n12", "label": "0 (no)"}
{"compound": "C#CCn1c(-c2cccc(OCCCCl)c2)nc2c1c(=O)n(C)c(=O)n2C", "label": "0 (no)"}
{"compound": "[O-]c1c[n+](-c2ccc(Cl)cc2)no1", "label": "0 (no)"}
{"compound": "COc1cc(Nc2ccnc(N3CCN(c4ccnc5cc(Cl)ccc45)CC3)n2)cc(OC)c1", "label": "0 (no)"}
{"compound": "COc1ccc(S(=O)(=O)Nc2cc(/C=C\\c3cc(OC)c(OC)c(OC)c3)ccc2OC)cc1", "label": "0 (no)"}
{"compound": "S=c1c2ncccc2c(-c2ccccn2)nn1Cc1ccccn1", "label": "0 (no)"}
{"compound": "O=C1CC[C@@H](C(=O)N[C@H]2CSSC[C@@H](C(=O)NCCc3ccccc3)NC(=O)[C@H](Cc3ccccc3)NC(=O)[C@@H]3CCCN3C(=O)[C@@H]3CCCN3C2=O)N1", "label": "0 (no)"}
